Concentration slopes of accumulation, PΔ3_1 min for assorted compounds
# System: P. aeruginosa PΔ3 cells;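 note: slope of accumulation versus external concentration fitted as a line through zero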
# stated.conditions: 1 min incubation, 10-80 µM
Structures can show the parent of a compound that is named as a salt.
Just the number, please, no unit attached.

get_value(item= CCN1CCCC1CNC(=O)c1cc(S(N)(=O)=O)ccc1OC.Cl (stereo not drawn) [OU-0032505, Sulpiride HCl] , readout=Concentration slopes of accumulation, PΔ3_1 min) returns 6.18

get_value(item= CC(C)NCC(O)c1ccc(NS(C)(=O)=O)cc1 (stereo not drawn) [OU-0032507, Sotalol HCl] , readout=Concentration slopes of accumulation, PΔ3_1 min) returns 3.77

get_value(item= COc1ccc2cc1Oc1ccc(cc1)C[C@H]1c3cc(c(OC)cc3CCN1C)Oc1c(OC)c(OC)cc3c1[C@H](C2)N(C)CC3 , readout=Concentration slopes of accumulation, PΔ3_1 min) returns 7.92

get_value(item= NC(N)=Nc1nc(CSCCC(N)=NS(N)(=O)=O)cs1 , readout=Concentration slopes of accumulation, PΔ3_1 min) returns 4.40

get_value(item= COc1c(N2CCNC(C)C2)c(F)cc2c(=O)c(C(=O)O)cn(C3CC3)c12 (stereo not drawn) , readout=Concentration slopes of accumulation, PΔ3_1 min) returns 1.11

get_value(item= CCn1cc(C(=O)O)c(=O)c2cc3c(cc21)OCO3 , readout=Concentration slopes of accumulation, PΔ3_1 min) returns 5.83
